B1: POU domain, class 3, transcription factor 1, residues 247 to 324; numbered along this chain, Q03052 (parent)
chain: EDAPSSDDLEQFAKQFKQRRIKLGFTQADVGLALGTLYGNVFSQTTICRFEALQLSFKNMCKLKPLLNKWLEETDSSS

variants of: B1; experiment: abundance fitness (aPCA) (normalised: wild type 0, dead -1); higher = more abundant; growth selection in yeast, the domain comes from the species named; conditions: Homo sapiens
Class definitions on abundance fitness: interval 1: < -0.3; interval 2: ≥ -0.3 and < -0.04; interval 3: ≥ -0.04

> print(dat)
    variant.spec  label.class
 1          L55T   interval 1
 2          L66Y   interval 3
 3          E51D   interval 1
 4          A33E   interval 3
 5          K62H   interval 3
 6          Y38M   interval 1
 7          A52R   interval 3
 8          T36I   interval 2
 9          L63E   interval 1
10          K64N   interval 1
11          L55A   interval 1
12          F57S   interval 2
13          K64E   interval 1
14          C61L   interval 2
15          E72L   interval 3
16          Q27E   interval 3
17          L34K   interval 1
18          T74S   interval 2
19          L53N   interval 3
20          L67I   interval 1
21          K64M   interval 2
22          Q44E   interval 3
23          L67M   interval 2
24          S76C   interval 1
25          V30C   interval 1
26          F25Q   interval 1
27          T74N   interval 3
28          F50Q   interval 1
29          T46H   interval 2
30          A33L   interval 3
31          S78E   interval 2
32          P65V   interval 2
33          F42Y   interval 3
34          C61K   interval 2
35          I21R   interval 1
36          K64T   interval 1
37          E72H   interval 3
38          L37F   interval 2
39          E72S   interval 2
40          L34V   interval 1
41          K69I   interval 3
42          G39W   interval 1
43          N40V   interval 2
44          V41P   interval 3
45          K62Q   interval 2
46          Y38D   interval 2
